The origin of these recorded values is patent US20100129369A1.

- experimental-target: T1, Human c-Met-Flis-Fc ECD (human)
- T1 construct: also called human c-Met extracellular domain (ECD)-Fc-Flis fusion; Human cMet-ECD-Fc-Flis
- T1 sequence (chain, as listed by the source limits assumed): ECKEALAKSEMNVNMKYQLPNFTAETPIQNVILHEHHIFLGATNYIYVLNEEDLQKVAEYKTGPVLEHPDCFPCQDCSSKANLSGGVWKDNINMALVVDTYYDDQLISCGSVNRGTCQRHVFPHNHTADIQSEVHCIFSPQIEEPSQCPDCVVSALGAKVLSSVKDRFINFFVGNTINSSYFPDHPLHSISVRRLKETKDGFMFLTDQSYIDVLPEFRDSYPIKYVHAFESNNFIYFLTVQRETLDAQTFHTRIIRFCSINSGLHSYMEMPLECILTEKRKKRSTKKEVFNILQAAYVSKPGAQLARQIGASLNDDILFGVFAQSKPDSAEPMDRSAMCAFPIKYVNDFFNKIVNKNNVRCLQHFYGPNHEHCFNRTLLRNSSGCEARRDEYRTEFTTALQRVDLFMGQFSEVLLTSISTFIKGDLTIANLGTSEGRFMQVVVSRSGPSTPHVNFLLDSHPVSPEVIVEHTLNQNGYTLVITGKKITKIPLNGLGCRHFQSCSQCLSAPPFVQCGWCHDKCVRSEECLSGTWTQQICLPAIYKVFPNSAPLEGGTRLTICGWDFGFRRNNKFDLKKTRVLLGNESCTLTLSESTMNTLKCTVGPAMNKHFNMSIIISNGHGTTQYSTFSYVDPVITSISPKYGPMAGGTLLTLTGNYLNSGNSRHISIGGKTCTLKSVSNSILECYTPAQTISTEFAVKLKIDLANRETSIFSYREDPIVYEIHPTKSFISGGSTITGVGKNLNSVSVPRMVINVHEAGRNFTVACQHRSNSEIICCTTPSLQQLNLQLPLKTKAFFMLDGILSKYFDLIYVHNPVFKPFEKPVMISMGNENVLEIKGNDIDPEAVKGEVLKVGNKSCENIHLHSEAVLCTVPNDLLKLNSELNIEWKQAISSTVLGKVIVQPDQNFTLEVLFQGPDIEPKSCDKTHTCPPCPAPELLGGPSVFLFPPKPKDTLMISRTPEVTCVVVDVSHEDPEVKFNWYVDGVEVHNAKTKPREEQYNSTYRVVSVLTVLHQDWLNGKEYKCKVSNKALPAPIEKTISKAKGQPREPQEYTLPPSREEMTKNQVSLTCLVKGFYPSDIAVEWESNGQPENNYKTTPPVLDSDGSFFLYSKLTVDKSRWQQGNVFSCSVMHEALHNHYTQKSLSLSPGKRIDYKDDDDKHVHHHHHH
- assay-overview: ELISA, coated ECD-Fc, antibody 462.963 ng/mL
reported-metric: Average A450 nm (A450 nm)
Report the figure in A450 nm without appending any unit label.

D11-S17Y (antibody, human IgG2, kappa, V domains shown, Human engineered IgG2, kappa) VH: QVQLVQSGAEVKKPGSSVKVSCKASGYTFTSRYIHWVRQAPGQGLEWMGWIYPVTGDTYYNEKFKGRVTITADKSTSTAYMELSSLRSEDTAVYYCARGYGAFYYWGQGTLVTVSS VL: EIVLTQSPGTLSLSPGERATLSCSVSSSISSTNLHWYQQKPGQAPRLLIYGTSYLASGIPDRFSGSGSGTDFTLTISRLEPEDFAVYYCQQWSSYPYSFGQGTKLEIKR
4

Kindly consider the entry below.
Query block: What value of Average A450 nm has been reported for the following binder? D11-8B8 (antibody, human IgG2, kappa, V domains shown, Human engineered IgG2, kappa; expressed in HEK293 EBNA cells; also called Mab D11-8B8) VH: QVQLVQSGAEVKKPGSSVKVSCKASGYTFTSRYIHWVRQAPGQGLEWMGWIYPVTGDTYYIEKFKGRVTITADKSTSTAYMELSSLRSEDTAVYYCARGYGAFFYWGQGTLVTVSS VL: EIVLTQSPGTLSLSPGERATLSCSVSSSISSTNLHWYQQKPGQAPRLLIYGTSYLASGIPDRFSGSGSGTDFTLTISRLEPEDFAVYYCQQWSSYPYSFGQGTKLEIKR
Result block: 4
